- PROTOCOL_SUMMARY: physchem
ATTRIBUTE_MEASURED: pKa

O=C(O)c1ccc(C(=O)O)cc1: 3.5 to 4.5

Turning now to a further molecule:
Prompt line: Supply pKa value. Item: O=C(O)c1ccccc1C(=O)O
Response line: 3.5 to 4.5

Every entry's value here was drawn from patent US6342319B1.
